Field: SPOT peptide array binding signal intensity. Provide a value for each of the binders that follow.
- tested_system: AgHof1
- test_method_notes: SPOT peptide array binding signal intensity (averaged, normalized) (arbitrary units (background-subtracted, floor 0; scale differs between SH3 domains)); higher = stronger binding of the SH3 domain to the peptide
Answer using only a numeral; do not append any unit.

// query Given `ALKQKKIPPPFKPHL` , state its recorded SPOT peptide array binding signal intensity.
// result 7.5

// query Record: `VQQDSLPKLPFRSWG`
// result 368

// query Try the binder `SRYRRPLTLLLLKPF`
// result 13.8
